Data provenance is ChEMBL document CHEMBL1128284.

Study System: 3-oxo-5-alpha-steroid 4-dehydrogenase 2 (Homo sapiens, UniProt P31213)
Sequence (P31213 whole entry): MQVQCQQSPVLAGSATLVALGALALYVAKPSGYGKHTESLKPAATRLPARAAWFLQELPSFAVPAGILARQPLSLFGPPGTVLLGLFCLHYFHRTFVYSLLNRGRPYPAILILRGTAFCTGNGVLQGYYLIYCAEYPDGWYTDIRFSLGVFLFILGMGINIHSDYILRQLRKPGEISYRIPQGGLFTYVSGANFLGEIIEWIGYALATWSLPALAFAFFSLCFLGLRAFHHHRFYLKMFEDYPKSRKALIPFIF
Protocol Description: In vitro inhibition of human steroid 5-alpha-reductase type 2 in SW-13-transfected cells
pIC50: −log10 of the molar value.
Measured pIC50 values are reported for all entries that follow.

Example entries and their recorded answers appear below.
CCCCCN(C(=O)CCC)[C@H]1CCC2C3CC[C@H]4N(C)C(=O)CC[C@]4(C)C3CC[C@@]21C (some centres not stated): < 7.00
CC(C)(C)NC(=O)[C@H]1CC[C@H]2[C@@H]3CC[C@H]4NC(=O)C=C[C@]4(C)[C@H]3CC[C@]12C [FINASTERIDE]: 8.34
CN(C=O)[C@H]1CCC2C3CC[C@H]4N(C)C(=O)C=C[C@]4(C)C3CC[C@@]21C (some centres not stated): < 6.00
CN1C(=O)CC[C@]2(C)C3CC[C@@]4(C)C(CC[C@@H]4N(C=O)CCC(C)(C)C)C3CC[C@@H]12 (some centres not stated): < 7.00
CN1C(=O)CC[C@@]2(C)C1=CCC1C2CC[C@@]2(C)C1CC[C@@H]2N(C)C=O (some centres not stated): < 6.00

Qu. Record request: pIC50 value, item CN1C(=O)CC[C@]2(C)C3CC[C@@]4(C)C(CC[C@@H]4N(C=O)C4CC4)C3CC[C@@H]12 (some centres not stated)
Ans. < 7.00

Qu. Record request: pIC50 value, item CCCCCN(C=O)[C@H]1CCC2C3CC[C@H]4N(C)C(=O)CC[C@]4(C)C3CC[C@@]21C (some centres not stated)
Ans. < 7.00
